test.summary: viability loss in HEK293T cells – cell-based, cherry-picks, cytotoxicity control for HIV Vif inhibitor project, dose response (AID 652208)
assay.setup: CellTiter-Glo luminescence, 24 h; series mostly up to 26 µM
Potency and affinity values are given separately. The source made the active and inactive calls.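 Rule for the calls: active = Loss of cell signal with fitted half-effect dose at or below twice the top valid tested dose; inconclusive = Poor fit, or flat fit from -70 to -30 percent; inactive = Half-effect above limit, rising signal, or flat within 30 percent.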
experimental.readout: outcome

Some molecules with recorded outcome:
molecule | outcome
CCn1c(SCc2nc3ccccc3c(=O)[nH]2)nc2ccccc2c1=O | inactive
COc1ccc(-c2cc(C(F)(F)F)n3nc(C(=O)NCc4ccco4)c(Cl)c3n2)cc1 | inactive
CC(C)C(c1nnnn1CC1CCCO1)N1CCN(C2CCCC2)CC1 (stereo unspecified) | inactive
NS(=O)(=O)c1ccc(NC(=O)CCC(=O)N2CCOCC2)cc1 | inactive
CCC(=O)Nc1ccc(-c2cc3ccccc3oc2=O)cc1 | inactive

Report outcome for every entry below.
1. c1ccc(-c2cn3nc(-c4ccccc4)c(-c4ccccc4)nc3n2)cc1
2. O=C(O)CCCCn1c(SCc2ccccc2Cl)nc2ccsc2c1=O
3. COc1ccc(CC(=O)Nc2ccc(-c3noc(-c4cc(OC)c(OC)c(OC)c4)n3)cc2)cc1

Response:
inactive
inactive
inactive

Record outcome for all entries; do not skip any.
1. COc1ccc(-c2nc(-c3ccccn3)nc(N3CCN(C)CC3)c2C#N)cc1
2. CC(C)(C)NC(=O)NC(=O)COc1ccccn1
3. O=C(CCCOc1ccc(Br)cc1)NNC(=O)c1ccncc1

Response:
["inactive", "inactive", "inactive"]

###

test.summary: viability loss in HEK293T cells – cell-based, cherry-picks, cytotoxicity control for HIV Vif inhibitor project, dose response (AID 652208)
assay.setup: CellTiter-Glo luminescence, 24 h; series mostly up to 26 µM
Measured potencies and affinities stand elsewhere. Activity calls are given as the source filed them.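 The calls were made as follows: active = Loss of cell signal with fitted half-effect dose at or below twice the top valid tested dose; inconclusive = Poor fit, or flat fit from -70 to -30 percent; inactive = Half-effect above limit, rising signal, or flat within 30 percent.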
experimental.readout: outcome

Field: example entries. Status: answers known.
record.smiles | measured.value
C=CCNc1sc(C(=O)c2ccc(Br)s2)c(N)c1C#N | inactive
COc1cc(OC)cc(C(=O)N[C@H](C(=O)Nc2ccc3c(c2)OCO3)C(C)C)c1 | inactive
COc1cc(/C=C/C(=O)OCC(=O)N2CCCc3ccccc32)ccc1O | inactive
COc1cc2[nH]c(=O)n(CCCC(=O)NC3CCCCC3)c(=O)c2cc1OC | inactive

Prompt: State its outcome for this molecule: COc1cc(-c2cnc3c(NC=O)cc(-c4ccccc4)cn23)cc(OC)c1OC
Response: inactive

###

test.summary: viability loss in HEK293T cells – cell-based, cherry-picks, cytotoxicity control for HIV Vif inhibitor project, dose response (AID 652208)
assay.setup: CellTiter-Glo luminescence, 24 h; series mostly up to 26 µM
Measured potencies and affinities stand elsewhere. Activity calls are given as the source filed them.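 How the source made its calls: active means Loss of cell signal with fitted half-effect dose at or below twice the top valid tested dose; inconclusive means Poor fit, or flat fit from -70 to -30 percent; inactive means Half-effect above limit, rising signal, or flat within 30 percent.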
experimental.readout: outcome

Example results:
molecule | experimental.readout | measured.value
C=CCN1C(=O)/C(=C/c2ccc(-c3ccc(F)cc3)o2)SC1=S | outcome | inactive
COC(CNC(=O)C1CCN(C(=O)c2cc3oc(C)cc3n2Cc2c(F)cccc2Cl)CC1)OC | outcome | inactive
COc1ccc(OC)c(NC(=O)c2nc(-c3ccccc3)oc2C)c1 | outcome | inactive
Cc1ncoc1C(=O)N1CCCC(C(=O)c2ccc(Oc3ccccc3)cc2)C1 (stereo not drawn) | outcome | inactive

Can you give me outcome for all of these, one by one?
1. Cc1nnc2ccc(-c3ccc(NS(=O)(=O)c4ccc(F)cc4F)cc3)nn12
2. COc1ccc(NC(=O)c2ccccc2NC(=O)CSc2ccc(C)cc2)cc1
3. N#Cc1cc2c(=O)n3ccccc3nc2n(-c2ccccc2Cl)c1=O
4. COc1cc(C(C)=O)ccc1OCC(=O)NCC1(N2CCCCC2)CCCCC1
5. CCOc1nc(N2CCCCC2)nc(-n2cc(-c3ccccc3)nn2)n1
6. COc1ccc2c(CC(=O)Nc3ccccc3OC)coc2c1
7. CCc1ccc(N2C(=O)/C(=C/c3cccs3)N(CC(=O)OC)C2=S)cc1

Response:
["inactive", "inactive", "inactive", "inactive", "inactive", "inactive", "inactive"]

Parameters: items (list). Returns: outcome for each item.
1. COCCNCC(=O)Nc1nc(C)cs1
2. FC(F)(F)c1nnc2c3ccccc3c(Cl)nn12
3. CC1(C)CC(=O)C2=C(C1)Nc1ccccc1N(C(=O)C1CC1)C2c1ccco1 (stereo not drawn)
4. COc1ccc(NC(=O)C2(C)Cc3c(-c4cccc(NC(C)=O)c4)ccnc3O2)cn1 (stereo not drawn)
5. COc1ccc(C(=O)NC2CC3CCCC(C2)N3Cc2ccccc2)cc1OC (stereo not drawn)

Response:
1: inactive; 2: inactive; 3: inactive; 4: inactive; 5: inactive

Provide outcome for all items below, preserving their order.
1. COc1ccc(CNC(=O)COC(=O)c2cc(S(=O)(=O)N3CCOCC3)ccc2O)cc1OC
2. COc1ccc(-c2coc3cc(O)ccc3c2=O)cc1
3. O=C(O)/C=C/C(=O)Nc1cccc(C(F)(F)F)c1
4. CC(C)C(=O)N=C1SC2CS(=O)(=O)CC2N1Cc1ccccc1 (stereo not drawn)
5. Cc1ccc2c(c1)N(CC(=O)NCC1CCCO1)C(=O)C(C(C)C)O2 (stereo not drawn)

Response:
["inactive", "inactive", "inactive", "inactive", "inactive"]

I have 2 molecules here; please give me outcome for each one.
1. COc1ccc(C(=O)Nc2cc(OC)c(NC(=O)Nc3ccccc3)cc2OC)cc1
2. O=C(NCC1CC1)NC(=O)c1c(F)cccc1Cl

Response:
["inactive", "inactive"]

###

test.summary: viability loss in HEK293T cells – cell-based, cherry-picks, cytotoxicity control for HIV Vif inhibitor project, dose response (AID 652208)
assay.setup: CellTiter-Glo luminescence, 24 h; series mostly up to 26 µM
Entries with a potency or affinity are not part of this list. Activity calls are given as the source filed them.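 Rule for the calls: active = Loss of cell signal with fitted half-effect dose at or below twice the top valid tested dose; inconclusive = Poor fit, or flat fit from -70 to -30 percent; inactive = Half-effect above limit, rising signal, or flat within 30 percent.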
experimental.readout: outcome

Use the examples below as a reference point.
compound | measured.value
O=S(=O)(Nn1cnnc1)c1ccccc1 | inactive
O=C(Nc1ccc2c(c1)nc1n2CCOC1)c1ccccc1 | inactive
COc1ccccc1C(C)NC(=O)Cc1ccsc1 (stereo unspecified) | inactive
O=C(Nc1cnccn1)Nc1ccccc1Cl | inactive
CC(C(=O)O)c1ccc(N2Cc3ccccc3C2=O)cc1 (stereo unspecified) | inactive
CCOc1ccc(CC(=O)Nc2sc(Cc3ccccc3)c(C)c2C(N)=O)cc1OCC | inactive
Cc1ccc2c(c1)N(CC(=O)N1CCCCCC1)C(=O)C(C)O2 (stereo unspecified) | inactive
Cc1ccc(-c2nn3c(C)nnc3c3ccccc23)cc1S(=O)(=O)NCc1ccccc1 | inactive
COc1ccc(OCCN2CCC(C(=O)NC(c3ccccn3)c3ccccc3OC)CC2)cc1 (stereo unspecified) | inactive
COc1cc(-c2cnc3c(NC=O)cc(-c4ccccc4Cl)cn23)cc(OC)c1OC | inactive

Prompt: Identify the reported outcome for the following entry. Cc1nc(C)n(CC(=O)N2CCCC(C(=O)c3ccc(C(F)(F)F)cc3)C2)n1 (stereo unspecified)
Response: inactive
